Details: human;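 further: value is a count of indexed literature references reporting granulomatous liver disease confirmed by histopathology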
Collected Hepatotoxicity (granulomatous hepatitis) values appear next to each entry.
measured endpoint: Hepatotoxicity (granulomatous hepatitis)

>  <compound>
CO[C@@H]1[C@H](OC(=O)/C=C/C=C/C=C/C=C/C(=O)O)CC[C@]2(CO2)[C@H]1[C@@]1(C)O[C@@H]1CC=C(C)C

>  <measured endpoint>
Hepatotoxicity (granulomatous hepatitis)

>  <numeric result>
0

$$$$
>  <compound>
CC(=O)OCC1=C(C(=O)O)N2C(=O)[C@@H](NC(=O)CSc3ccncc3)[C@H]2SC1

>  <measured endpoint>
Hepatotoxicity (granulomatous hepatitis)

>  <numeric result>
0

$$$$
>  <compound>
CN(C)CCN1C(=O)c2cccc3cc(N)cc(c23)C1=O [AMONAFIDE]

>  <measured endpoint>
Hepatotoxicity (granulomatous hepatitis)

>  <numeric result>
0

$$$$
>  <compound>
O=C(NCN1CCOCC1)c1cnccn1 [MORINAMIDE]

>  <measured endpoint>
Hepatotoxicity (granulomatous hepatitis)

>  <numeric result>
0

$$$$
>  <compound>
Nc1cc(N2CCCCC2)nc(N)[n+]1[O-]

>  <measured endpoint>
Hepatotoxicity (granulomatous hepatitis)

>  <numeric result>
0

$$$$
>  <compound>
COC1=C(C(=O)O)N2C(=O)[C@@H](NC(=O)[C@H](N)C3=CCC=CC3)[C@H]2SC1

>  <measured endpoint>
Hepatotoxicity (granulomatous hepatitis)

>  <numeric result>
0

$$$$
>  <compound>
CN[C@@H]1[C@@H](O)[C@@H](O[C@@H]2[C@@H](O)[C@H](O[C@H]3OC(CN)=CC[C@H]3N)[C@@H](N)C[C@H]2N)OC[C@]1(C)O

>  <measured endpoint>
Hepatotoxicity (granulomatous hepatitis)

>  <numeric result>
0

$$$$
>  <compound>
CCCCC1C(=O)NN(c2ccccc2)C1=O (stereo not drawn)

>  <measured endpoint>
Hepatotoxicity (granulomatous hepatitis)

>  <numeric result>
0

$$$$
